# TARGET: T1, hen egg white lysozyme (hen, UniProt P00698 19-147, biotinylated (HEL-b); sites not stated)
# T1 construct: also called lyzozyme; HEL-b (biotinylated)
# T1 sequence (P00698 19-147 limits assumed): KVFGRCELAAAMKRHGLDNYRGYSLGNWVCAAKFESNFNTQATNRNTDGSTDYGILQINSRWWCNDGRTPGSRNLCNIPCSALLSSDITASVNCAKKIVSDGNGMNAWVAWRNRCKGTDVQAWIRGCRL
# PROTOCOL_TEXT: yeast display selection
MEASURE: binding result

For orientation, consider the following solved cases.
INSERT INTO results (binder, result) VALUES
  ('SEQ ID NO 106 (designed binder) VSDVPRDLEVVAATPTSLLISWDAPAVTVRYYRITYGESGYRYQEFTVPGSKSTATISGYREHVDYTITVYAVTGRGESPASSKPISINYQESY', 'binds'),
  ('SEQ ID NO 88 (designed binder) VSDVPRDLEVVAATPTSLLISWDAPAVTVRYYRITYGESSSSRRQEFTVPGSKSTATISGEESYVDYTITVYAVTGRGESPASSKPISINYAEER', 'binds'),
  ('SEQ ID NO 89 (designed binder) VSDVPRDLEVVAATPTSLLISWDAPAVTVRYYRITYGEGRHPSYQEFTVPGSKSTATISPSYSRVDYTITVYAVTGRGESPASSKPISINYSRER', 'binds'),
  ('SEQ ID NO 63 (designed binder) VSDVPRDLEVVAATPTSLLISWDAPAVTVRYYRITYGERERQHGYQEFTVPGSKSTATISRYRRRVDYTITVYAVTGRGESPASSKPISINYEPGY', 'binds'),
  ('SEQ ID NO 109 (designed binder) VSDVPRDLEVVAATTTSLLISWDAPAVTVRYYRITYGESGRGAQEFTVPGSKSTATISGLGPPVDYTITVYAVTGRGESPASSKPISINYRSQH', 'binds'),
  ('SEQ ID NO 52 (designed binder) VSDVPRDLEVVAATPTSLLISWDAPAVTVRYYRITYGESSRSPRGQEFTVPGSKSTATISRAEYRVDYTITVYAVTGRGESPASSKPISINYYLRQ', 'binds'),
  ('SEQ ID NO 96 (designed binder) VSDVPRDLEVVAATPTSLLISWDAPAVTVRYYRITYGEYHYSEQEFTVPGSKSTATISYYEPRVDYTITVYAVTGRGESPASSKPISINYHSSR', 'binds'),
  ('SEQ ID NO 114 (designed binder) VSDVPRDLEVVAATPTSLLISWDAPAVTVRYYRITYGEQRYSYYGQQEFTVPGSKSTATISSGRSSVDYTITVYAVTGRGESPASSKPISINYRRSY', 'binds'),
  ('SEQ ID NO 83 (designed binder) VSDVPRDLEVVAATPTSLLISWDAPAVTVRYYRITYGEAHEYYYQEFTVPGSKSTATISRSSSSVDYTITVYAVTGRGESPASSKPISINYYGRY', 'binds'),
  ('SEQ ID NO 55 (designed binder) VSDVPRDLEVVAATPTSLLISWDAPAVTVRYYRITYGEGQGAGASQEFTVPGSKSTATISGAEPAVDYTITVYAVTGRGESPASSKPISINYGPRY', 'binds');

Read the next record carefully.
Exercise: Entry SEQ ID NO 75 (designed binder) VSDVPRDLEVVAATPTSLLISWDAPAVTVRYYRITYGEYGGSQAQEFTVPGSKSTATISREYGSVDYTITVYAVTGRGESPASSKPISINYALGE : reported binding result = ?
Solution: binds
